species on record: Rattus norvegicus; experiment: DrugMatrix - Regimen: Daily Repeat; type: toxicity, organism-based, Sprague-Dawley; design: regimen Daily Repeat, gender Male, age 6-8 weeks; conditions: in vivo, po, 0 mg/kg, 120 h, tissue Plasma, route oral GAVAGE, dose level Control, time 5 day, […]
Field: GLUCOSE. Provide a value for each of the molecules that follow.
Give bare numbers, in mg/dL.

{"MOLECULE": "CC(=O)Oc1ccccc1C(=O)O", "MEASURE_UNIT": "mg/dL", "MEASURED_VALUE": 171.33}
{"MOLECULE": "CCc1ccc(CCOc2ccc(CC3SC(=O)NC3=O)cc2)nc1 (stereo not drawn)", "MEASURE_UNIT": "mg/dL", "MEASURED_VALUE": 147.83}

Now take the following molecule into account.
Form: molecule = c1ccoc1 ; GLUCOSE = 162.83
